Source: ChEMBL document CHEMBL4261533

Molecular target: Gastrin/cholecystokinin type B receptor (Rattus norvegicus)
Sequence (P30553 whole entry): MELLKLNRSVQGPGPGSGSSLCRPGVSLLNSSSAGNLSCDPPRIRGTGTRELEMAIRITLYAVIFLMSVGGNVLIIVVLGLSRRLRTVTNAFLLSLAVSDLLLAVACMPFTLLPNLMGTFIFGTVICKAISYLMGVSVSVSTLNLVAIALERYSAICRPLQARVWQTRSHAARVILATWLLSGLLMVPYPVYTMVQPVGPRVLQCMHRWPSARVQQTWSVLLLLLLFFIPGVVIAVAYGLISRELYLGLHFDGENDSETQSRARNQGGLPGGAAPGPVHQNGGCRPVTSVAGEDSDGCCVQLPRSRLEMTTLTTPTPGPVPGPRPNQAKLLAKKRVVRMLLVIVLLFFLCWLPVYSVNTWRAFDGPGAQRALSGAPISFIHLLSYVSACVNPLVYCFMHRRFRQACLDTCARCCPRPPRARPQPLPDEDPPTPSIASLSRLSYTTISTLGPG
Assay: Displacement of [125I]-BH-CCK-8 from CCK-B receptor in rat cerebral cortex plasma membrane after 1 hr by liquid scintillation counting method
Format: cell membranes
pIC50: −log10 of the molar value.
PROPERTY_MEASURED: pIC50

In: // returns reported pIC50 for input `O=C1Nc2ccccc2/C1=N/Nc1nc2ccccc2c(=O)n1-c1cccc(Cl)c1`
Out: 6.42

In: And what about the compound `O=C1Nc2ccccc2/C1=N/Nc1nc2ccccc2c(=O)n1-c1cccc(Br)c1` ?
Out: 7.71

In: And what about the compound `O=C(O)c1cccc(NC(=S)NNc2nc3ccccc3c(=O)n2-c2cccc(Br)c2)c1` ?
Out: 8.06

I. CCOc1ccc(NC(=S)NNc2nc3ccccc3c(=O)n2-c2ccc(Cl)cc2)cc1
II. CCOc1ccc(-n2c(N/N=C3\C(=O)Nc4ccccc43)nc3ccccc3c2=O)cc1
In: Response body: label of entry with the larger pIC50; valid values I , II . Pick one; state its label.
Out: I

---

Target: Gastrin/cholecystokinin type B receptor (Mus musculus)
Assay: Inhibition of CCK-B receptor in lumen perfused albino mouse stomach assessed as reduction in boc-pentagastrin-induced gastric acid secretion at 100 nM after 45 mins relative to control
Format: functional
PROPERTY_MEASURED: inhibition (%)

In: // returns reported inhibition for input `O=C1Nc2ccccc2/C1=N/Nc1nc2ccccc2c(=O)n1-c1cccc(Br)c1`
Out: 62

In: And what about the compound `CCOc1ccc(-n2c(NNC(=S)Nc3ccc(Cl)cc3)nc3ccccc3c2=O)cc1` ?
Out: 58

In: And what about the compound `CCOc1ccc(-n2c(NNC(=S)Nc3ccc(Br)cc3)nc3ccccc3c2=O)cc1` ?
Out: 39

In: And what about the compound `O=C(O)c1cccc(NC(=S)NNc2nc3ccccc3c(=O)n2-c2cccc(Br)c2)c1` ?
Out: 62

In: And what about the compound `O=C1Nc2ccccc2/C1=N/Nc1nc2ccccc2c(=O)n1-c1ccc(Cl)cc1` ?
Out: 58

In: And what about the compound `O=C(O)c1cccc(NC(=S)NNc2nc3ccccc3c(=O)n2-c2ccc(Br)cc2)c1` ?
Out: 39

In: And what about the compound `O=C1Nc2ccccc2/C1=N/Nc1nc2ccccc2c(=O)n1-c1cccc(Cl)c1` ?
Out: 58

In: And what about the compound `CCOc1ccc(NC(=S)NNc2nc3ccccc3c(=O)n2-c2ccc(Cl)cc2)cc1` ?
Out: 53

In: And what about the compound `CCOc1ccc(-n2c(NNC(=S)Nc3cccc(C(=O)O)c3)nc3ccccc3c2=O)cc1` ?
Out: 58

In: And what about the compound `CCOc1ccc(-n2c(N/N=C3\C(=O)Nc4ccccc43)nc3ccccc3c2=O)cc1` ?
Out: 48
